The values you see were collected from the supplement of paper PMC9844399.

- Tested on: HeLa;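 also: High-content confocal imaging of branched-DNA amplified FISH in 384-well plates, Hoechst-defined nuclei, score is well value minus plate DMSO median over DMSO robust SD, four wells per compound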
- EXPERIMENT_SUMMARY: MALAT1 nuclear FISH intensity, robust Z-score vs DMSO; higher = more nuclear MALAT1 lncRNA, active = -3 or less
- DETAILS: 10 µM; 6 h
Outcome: satisfied for MALAT1 nuclear FISH intensity of at least -0.3; not satisfied for anything lower.

Solved cases below.
* Nc1ncn([C@@H]2O[C@H](CO)[C@@H](O)[C@H]2O)c(=O)n1 | not satisfied
* CCC(C)n1ncn(-c2ccc(N3CCN(c4ccc(OCC5COC(Cn6cncn6)(c6ccc(Cl)cc6Cl)O5)cc4)CC3)cc2)c1=O (centres undefined) | not satisfied
* O=c1c(-c2ccc(O)cc2)coc2cc(O[C@@H]3O[C@H](CO)[C@@H](O)[C@H](O)[C@H]3O)ccc12 | not satisfied
* C[C@H]1O[C@@H](O[C@H]2[C@@H](O)C[C@H](O[C@H]3[C@@H](O)C[C@H](O[C@H]4CC[C@@]5(C)[C@H](CC[C@@H]6[C@@H]5C[C@@H](O)[C@]5(C)[C@@H](C7=CC(=O)OC7)CC[C@]65O)C4)O[C@@H]3C)O[C@@H]2C)C[C@H](O)[C@@H]1O | satisfied

## Task Is the recorded value of MALAT1 nuclear FISH intensity equal to or greater than -0.3 for this compound? CN(C)CCOc1ccc(/C(=C(/CCCl)c2ccccc2)c2ccccc2)cc1 [Toremifene Base]
## Result not satisfied

## Task Is the recorded value of MALAT1 nuclear FISH intensity equal to or greater than -0.3 for this compound? Nc1nc(/C(=C/CC(=O)O)C(=O)N[C@@H]2C(=O)N3C(C(=O)O)=CCS[C@H]23)cs1
## Result satisfied
